biological target: hERG potassium channel (IKr) (Homo sapiens); construct: purchased Caliper Life Sciences (now PerkinElmer), NOVASCREEN General SEP II; test: General side effect profile (SEP) II diversity panel; type: binding; conditions: human; 1.0E-5 M; read-out: Percent Inhibition: Potassium Channel, I [Kr] (hERG) (h)
Sequence (Q12809 whole entry): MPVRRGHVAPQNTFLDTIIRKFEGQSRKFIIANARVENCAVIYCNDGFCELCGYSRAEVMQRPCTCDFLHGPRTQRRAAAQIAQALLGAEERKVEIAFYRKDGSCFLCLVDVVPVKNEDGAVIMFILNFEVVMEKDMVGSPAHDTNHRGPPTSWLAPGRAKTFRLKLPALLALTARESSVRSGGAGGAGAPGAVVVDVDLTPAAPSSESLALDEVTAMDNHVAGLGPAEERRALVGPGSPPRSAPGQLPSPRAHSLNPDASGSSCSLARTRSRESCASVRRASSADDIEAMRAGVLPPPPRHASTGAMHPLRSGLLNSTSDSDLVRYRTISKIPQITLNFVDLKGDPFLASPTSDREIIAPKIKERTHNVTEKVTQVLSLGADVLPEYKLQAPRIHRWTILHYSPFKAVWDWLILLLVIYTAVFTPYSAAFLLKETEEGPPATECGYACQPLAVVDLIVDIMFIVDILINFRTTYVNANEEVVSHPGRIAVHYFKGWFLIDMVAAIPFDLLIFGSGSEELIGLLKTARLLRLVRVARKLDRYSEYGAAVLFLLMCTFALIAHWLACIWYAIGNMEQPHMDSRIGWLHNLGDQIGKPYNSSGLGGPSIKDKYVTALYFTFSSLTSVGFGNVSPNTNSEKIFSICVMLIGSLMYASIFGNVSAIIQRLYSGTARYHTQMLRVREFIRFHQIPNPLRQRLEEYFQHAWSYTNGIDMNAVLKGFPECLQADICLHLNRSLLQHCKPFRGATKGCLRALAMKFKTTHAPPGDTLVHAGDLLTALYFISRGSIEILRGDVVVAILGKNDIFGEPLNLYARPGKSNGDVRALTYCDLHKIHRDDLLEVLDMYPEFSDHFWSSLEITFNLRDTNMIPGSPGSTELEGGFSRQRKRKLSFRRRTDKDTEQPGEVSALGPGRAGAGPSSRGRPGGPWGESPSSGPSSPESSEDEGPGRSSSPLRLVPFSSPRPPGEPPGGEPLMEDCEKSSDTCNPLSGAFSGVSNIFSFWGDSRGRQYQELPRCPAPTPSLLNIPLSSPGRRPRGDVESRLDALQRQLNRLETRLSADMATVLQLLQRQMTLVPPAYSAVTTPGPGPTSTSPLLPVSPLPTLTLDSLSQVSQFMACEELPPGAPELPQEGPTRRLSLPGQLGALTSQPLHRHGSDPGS

Record Smiles	inhibition at 10 µM [%]
CC(C)(C)CNCCn1c(Sc2cc3c(cc2I)OCO3)nc2c(N)ncnc21	-18

###

# PAMPA-BBB values compiled below
conditions: pH 7.4

Compound	PAMPA-BBB
Nc1nc(F)nc2c1nc(Cc1cc3c(cc1I)OCO3)n2CCCN1CCOCC1 [Compound 68]	6.3±1.1 10-6 cms-1
C=Cc1cc2c(cc1Sc1nc3c(N)ncnc3n1CCCNC(C)C)OCO2 [Compound 7]	6.1±0.1 10-6 cms-1
CC1CN1CCCn1c(Cc2cc3c(cc2I)OCO3)nc2c(N)nc(F)nc21 (centres unmarked) [Compound 66]	5.8±1.5 10-6 cms-1
CC(C)NCCCn1c(Sc2cc3ccccc3cc2I)nc2c(N)ncnc21 [Compound 58]	10.8±0.2 10-6 cms-1
CCCN(CCCn1c(Cc2cc3c(cc2I)OCO3)nc2c(N)nc(F)nc21)CC1CC1 [Compound 63]	8.4±2.1 10-6 cms-1

###

target: HSP90 pools in JNPL3 (AD transgenic) mouse brain lysate; assay: Fluorescence polarization (FP) competitive binding, cy3B-GM; conditions: displacement of cy3B-GM, 24 h, 4 °C; mean±SD, n=3; read-out: FP relative affinity
pEC50: −log10 of the molar value.
Measured Endpoint: pEC50

Molecule	Value Prefix	Quantitative Readout
Nc1ncnc2c1nc(Sc1cc3c(cc1I)OCC3)n2CCCBr [Compound 40]	=	8.10
CC(C)NCCCn1c(Sc2cc3c(cc2-c2ccc(C(C)(C)C)cc2)OCO3)nc2c(N)ncnc21 [Compound 11]	=	5.59
C=CCc1cc2c(cc1Cc1nc3c(N)nc(F)nc3n1CCCNC(C)C)OCO2 [Compound 23]	<	5.30
Nc1nc(F)nc2c1nc(Cc1cc3c(cc1I)OCO3)n2CCCN1CCCCC1 [Compound 67]	=	6.95

###

assay: PAMPA-BBB permeability; conditions: Supplementary Table 6
Measured Endpoint: PAMPA_BBB

Compound	Measured Endpoint	Quantitative Readout
Nc1ncnc2c1nc(Sc1cc3c(cc1I)OCC3)n2CCCBr	PAMPA_BBB	7.7
CC(C)NCCCn1c(Sc2cc3c(cc2I)OCCO3)nc2c(N)ncnc21	PAMPA_BBB	6.6
CC(C)(C)CNCCn1c(Sc2cc3c(cc2I)OCO3)nc2c(N)ncnc21	PAMPA_BBB	15.4
CC(C)(C)NCCCn1c(Cc2cc3c(cc2I)OCO3)nc2c(N)nc(F)nc21	PAMPA_BBB	13.3
Nc1nc(F)nc2c1nc(Cc1cc3c(cc1I)OCO3)n2CCCN1CCCCC1	PAMPA_BBB	6.9
CC(C)NCCCn1c(Sc2cc3c(cc2-c2ccc(Br)cc2)OCO3)nc2c(N)ncnc21	PAMPA_BBB	11.5
CCc1cc2c(cc1Cc1nc3c(N)nc(F)nc3n1CCCNC(C)C)OCO2	PAMPA_BBB	5.9
CC(C)NCCCn1c(Sc2cc3c(cc2I)OCO3)nc2c(N)ncnc21 [Compound 1, reference compound]	PAMPA_BBB	7.3

###

test: in vitro; conditions: PAMPA, pH 7.4

Molecule	Papp at 16 h, 50 μM (×10⁻⁶ cm/s)
Nc1ncnc2c1nc(Sc1cc3c(cc1I)OCC3)n2CCCBr [Compound 40]	7.7
C=Cc1cc2c(cc1Cc1nc3c(N)nc(F)nc3n1CCCNC(C)C)OCO2 [Compound 22]	5.6
CCc1cc2c(cc1Cc1nc3c(N)nc(F)nc3n1CCCNC(C)C)OCO2 [Compound 21]	5.9
Nc1nc(F)nc2c1nc(Cc1cc3c(cc1I)OCO3)n2CCCN1CCCCC1 [Compound 67]	6.9
CC(C)NCCCn1c(Sc2cc3c(cc2-c2ccc(Br)cc2)OCO3)nc2c(N)ncnc21 [Compound 10]	11.5
C=CCc1cc2c(cc1Cc1nc3c(N)nc(F)nc3n1CCCNC(C)C)OCO2 [Compound 23]	4.6
CC(C)NCCCn1c(Sc2cc3c(cc2I)OCCO3)nc2c(N)ncnc21 [Compound 28]	6.6

###

assay: Pharmacokinetic studies in mice (LC-MS/MS); format: in vivo, B6D2F1 mice; conditions: male, B6D2F1, mouse, plasma; oral, 10 mg kg^−1
Measured Endpoint: bioavailability (%)

Molecule	Quantitative Readout
CC(C)(C)CNCCn1c(Sc2cc3c(cc2I)OCO3)nc2c(N)ncnc21 [Compound 85]	68

###

biological target: muscarinic receptor M5 (printed "MS") (Homo sapiens, UniProt P08912); construct: purchased Caliper Life Sciences (now PerkinElmer), NOVASCREEN General SEP II; experiment: General side effect profile (SEP) II diversity panel; format: binding; details: human; 1.0E-5 M; read-out: Percent Inhibition: Muscarinic, MS (h)
Sequence (P08912 whole entry): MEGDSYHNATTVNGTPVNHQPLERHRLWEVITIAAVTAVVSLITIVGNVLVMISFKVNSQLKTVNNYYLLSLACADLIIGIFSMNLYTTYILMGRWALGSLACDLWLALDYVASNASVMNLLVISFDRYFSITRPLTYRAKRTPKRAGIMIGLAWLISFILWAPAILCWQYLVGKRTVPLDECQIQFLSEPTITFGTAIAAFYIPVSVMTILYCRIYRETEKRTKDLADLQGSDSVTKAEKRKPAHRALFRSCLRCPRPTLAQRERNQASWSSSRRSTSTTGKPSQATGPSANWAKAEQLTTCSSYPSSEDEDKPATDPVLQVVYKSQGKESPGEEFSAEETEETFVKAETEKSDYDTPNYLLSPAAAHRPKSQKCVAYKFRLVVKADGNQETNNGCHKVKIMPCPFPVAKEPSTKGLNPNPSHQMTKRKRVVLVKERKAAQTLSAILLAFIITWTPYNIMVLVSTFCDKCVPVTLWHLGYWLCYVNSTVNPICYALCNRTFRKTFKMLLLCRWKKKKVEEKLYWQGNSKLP

Compound	System Tested	inhibition at 10 µM, %
CC(C)(C)CNCCn1c(Sc2cc3c(cc2I)OCO3)nc2c(N)ncnc21 [Compound 85]	muscarinic receptor M5 (printed "MS") (Homo sapiens, UniProt P08912)	69.9

###

molecular target: HSP90 pools in JNPL3 (AD transgenic) mouse brain lysate; experiment: Fluorescence polarization (FP) competitive binding, cy3B-GM; conditions: displacement of cy3B-GM, 24 h, 4 °C; mean±SD, n=3; read-out: FP relative affinity
Measured Endpoint: log10(EC50) (log10 of the value in nM)

Compound	log10(EC50)
CC(C)N(C)CCCn1c(Cc2cc3c(cc2I)OCO3)nc2c(N)nc(F)nc21 [Compound 60]	1.59
CC(C)NCCCn1c(Sc2cc3c(cc2I)OCCCO3)nc2c(N)ncnc21 [Compound 35]	2.37
CC(C)CNCCn1c(Sc2cc3c(cc2I)CCO3)nc2c(N)ncnc21 [Compound 86]	0.74
CC(C)NCCCn1c(Sc2cc3c(cc2I)CCC3)nc2c(N)ncnc21 [Compound 53]	0.65
CC(C)NCCCn1c(Sc2cc3c(cc2C#N)OCO3)nc2c(N)ncnc21 [Compound 5]	2.45
CC(C)NCCCn1c(Sc2cc3c(cc2Br)OCO3)nc2c(N)ncnc21 [Compound 3]	2.09
CC(=O)c1cc2c(cc1Sc1nc3c(N)ncnc3n1CCCNC(C)C)OCO2 [Compound 6]	2.01
CC(C)(C)NCCCn1c(Cc2cc3c(cc2I)OCO3)nc2c(N)nc(F)nc21 [Compound 59]	1.10
C=CCN(C)CCCn1c(Cc2cc3c(cc2I)OCO3)nc2c(N)nc(F)nc21 [Compound 65]	1.64

###

assay: Pharmacokinetic studies in mice (LC-MS/MS); assay type: in vivo, B6D2F1 mice; settings: male, B6D2F1, mouse, brain, iv; i.v. 10 mg kg^−1; read-out: brain exposure, AUC
Measured Endpoint: AUC (µM·h)

Compound	Measured Endpoint	Quantitative Readout
CC(C)NCCCn1c(Sc2cc3c(cc2I)OCO3)nc2c(N)ncnc21 [Compound 1, reference compound]	AUC	0.89
CC(C)(C)CNCCn1c(Sc2cc3c(cc2I)OCO3)nc2c(N)ncnc21	AUC	8.25

###

conditions: PAMPA
# PAMPA_BBB values compiled below
Measured Endpoint: PAMPA_BBB

Record Smiles	Quantitative Readout
C=CCN(C)CCCn1c(Cc2cc3c(cc2I)OCO3)nc2c(N)nc(F)nc21	11.3
CCN(C)CCCn1c(Cc2cc3c(cc2I)OCO3)nc2c(N)nc(F)nc21	7.5
C=CCc1cc2c(cc1Sc1nc3c(N)ncnc3n1CCCNC(C)C)OCO2	6.7
Nc1nc(F)nc2c1nc(Cc1cc3c(cc1I)OCO3)n2CCCN1CCOCC1	6.3
CC(C)NCCCn1c(Sc2cc3ccccc3cc2I)nc2c(N)ncnc21	10.8
CC(C)NCCCn1c(Sc2cc3c(cc2-c2ccc(N(C)C)cc2)OCO3)nc2c(N)ncnc21	9.2
Nc1nc(F)nc2c1nc(Cc1cc3c(cc1I)OCO3)n2CCCN(CCO)C1CCCCC1	8.5
Nc1nc(F)nc2c1nc(Cc1cc3c(cc1I)OCO3)n2CCCN1CCN(CCO)CC1	4.7

###

assay: Pharmacokinetic studies in mice (LC-MS/MS); assay type: in vivo, B6D2F1 mice; conditions: male, B6D2F1, mouse, brain, intravenous, 10 mg kg^−1, Brain; time 0.5 h; individual animals; read-out: Brain level
Measured Endpoint: concentration at 0.5 h (µM)

Record Smiles	Quantitative Readout
CC(C)(C)CNCCn1c(Sc2cc3c(cc2I)OCO3)nc2c(N)ncnc21	4.58

###

experiment: PAMPA-BBB permeability; details: pig, PAMPA, pH 7.4
# Papp at 16 h, 50 μM values compiled below

Compound	Papp at 16 h, 50 μM, ×10⁻⁶ cm/s
CC(C)(C)NCCCn1c(Cc2cc3c(cc2I)OCO3)nc2c(N)nc(F)nc21	13.3
CC(C)NCCCn1c(Sc2cc3c(cc2I)OCO3)nc2c(N)ncnc21 [Compound 1, reference compound]	7.3
CC(C)NCCCn1c(Sc2cc3c(cc2I)CCC3)nc2c(N)ncnc21	15.1
CC(C)(C)CNCCn1c(Sc2cc3c(cc2I)OCO3)nc2c(N)ncnc21	15.4
C#CCN(C)CCCn1c(Cc2cc3c(cc2I)OCO3)nc2c(N)nc(F)nc21	11.1
